We begin with IC50 values for Tyrosine-protein kinase Lck (Homo sapiens, UniProt P06239), as collected from the published literature.
Parameter: IC50 (nM)

input_smiles=COc1ccc(-c2cccc3nc(NC(=O)C4CC4)nn23)cc1 test_system="Tyrosine-protein kinase Lck (Homo sapiens, UniProt P06239)" parameter=IC50 value_operator== recorded_measurement=4440
input_smiles=Cc1cn2c(-c3cn[nH]c3)cnc2c(Nc2cc(CN3CCCCC3(C)C)ns2)n1 test_system="Tyrosine-protein kinase Lck (Homo sapiens, UniProt P06239)" parameter=IC50 value_operator== recorded_measurement=45
input_smiles=COc1cc2ncnc(Nc3cccc(Cl)c3F)c2cc1CN1CCCC1 test_system="Tyrosine-protein kinase Lck (Homo sapiens, UniProt P06239)" parameter=IC50 value_operator=> recorded_measurement=10000
input_smiles=Cc1ccc(C(=O)Nc2cccc(C(F)(F)F)c2)cc1Nc1nc2ccccc2n1-c1cc(NCCN2CCN(C)CC2)ncn1 test_system="Tyrosine-protein kinase Lck (Homo sapiens, UniProt P06239)" parameter=IC50 value_operator== recorded_measurement=11
input_smiles=CNS(=O)(=O)c1ccc2c(c1)/C(=C/c1[nH]c3c(c1CCCN(C)C)CCCC3)C(=O)N2 test_system="Tyrosine-protein kinase Lck (Homo sapiens, UniProt P06239)" parameter=IC50 value_operator== recorded_measurement=1600
input_smiles=C(=N\Nc1ccccn1)/c1cccnc1 test_system="Tyrosine-protein kinase Lck (Homo sapiens, UniProt P06239)" parameter=IC50 value_operator== recorded_measurement=400000
input_smiles=Cc1ccc(C(=O)Nc2cccc(C(N)=O)c2)cc1Nc1nc2ccccc2n1-c1cc(N)ncn1 test_system="Tyrosine-protein kinase Lck (Homo sapiens, UniProt P06239)" parameter=IC50 value_operator=> recorded_measurement=2500
input_smiles=COc1cc(C)ccc1Oc1nc(Nc2ccc(N3CCOCC3)cc2)ncc1/N=C/c1cc(C(F)(F)F)cc(C(F)(F)F)c1 test_system="Tyrosine-protein kinase Lck (Homo sapiens, UniProt P06239)" parameter=IC50 value_operator== recorded_measurement=6
input_smiles=COc1cc(-n2c(Nc3cc(NC(=O)c4cccc(C(F)(F)F)c4)ccc3C)nc3ccccc32)ncn1 test_system="Tyrosine-protein kinase Lck (Homo sapiens, UniProt P06239)" parameter=IC50 value_operator== recorded_measurement=2030
input_smiles=CCCNc1ncc(C(=O)Nc2cc(C(=O)NC)ccc2C)s1 test_system="Tyrosine-protein kinase Lck (Homo sapiens, UniProt P06239)" parameter=IC50 value_operator== recorded_measurement=4800
input_smiles=COc1ccc2c(c1)/C(=C/c1cc3c([nH]1)CCN(C(=O)c1cnoc1C)C3)C(=O)N2 test_system="Tyrosine-protein kinase Lck (Homo sapiens, UniProt P06239)" parameter=IC50 value_operator== recorded_measurement=390
input_smiles=CCNC/C=C/c1nc(O)c2c(ccc3nc(Nc4c(Cl)cccc4Cl)n(C)c32)c1C test_system="Tyrosine-protein kinase Lck (Homo sapiens, UniProt P06239)" parameter=IC50 value_operator== recorded_measurement=2
input_smiles=COc1cc(C)ccc1Oc1nc(Nc2ccc(N3CCOCC3)cc2)ncc1NC(=O)Nc1cc(Cl)cc(Cl)c1 test_system="Tyrosine-protein kinase Lck (Homo sapiens, UniProt P06239)" parameter=IC50 value_operator=> recorded_measurement=100000
